- experimental-target: GLP-1R (Homo sapiens)
- Construct: host or cells: GLP-1R CRE-bla CHO-K1 cells
- assay-details: EC20 GLP-1(9-36) PAM cAMP assay: dose response of compound in the presence of fixed concentration of GLP-1(9-36)
- Assay type: cell-based
- measurement-setup: dose response of compound in presence of fixed concentration of GLP-1(9-36), GLP-1R CRE-bla CHO-K1 cells, read-out: EC20 GLP-1(9-36) PAM EC50
For each of the compounds below, state its EC50.

A selection of reference data follows.
CCCCCCCOc1ccc(-c2cnc(-c3ccc(C[C@H](NC(=O)c4ccc(C(C)(C)C)s4)C(=O)NC4CCNC4)cc3)nc2)cc1 (stereo partly drawn) [Compound 984] | 2.5 to 5 µM
CC(C)(C)c1ccc(C(=O)N[C@@H](Cc2ccc(-c3ncc(-c4ccc(OC(F)(F)F)cc4)cn3)cc2)C(=O)NC(C(=O)O)C(O)c2ccccc2)s1 (stereo partly drawn) [Compound 927] | 2.5 to 5 µM
CCCCCCCOc1ccc(-c2cnc(-c3ccc(C[C@H](NC(=O)c4ccc(C(C)(C)C)s4)C(=O)NC(C(=O)O)[C@@H](C)c4ccccc4)cc3)nc2)cc1 (stereo partly drawn) [Compound 897] | 5 to 10 µM
CCCCCCCOc1ccc(-c2cnc(-c3ccc(C[C@H](NC(=O)c4ccc(C(C)(C)C)cc4)C(=O)N[C@@H](CC4CCCNC4)C(=O)O)cc3)nc2)cc1 (stereo partly drawn) [Compound 577] | 2.5 to 5 µM
CCC(CC)Oc1ccc(-c2cnc(-c3ccc(C[C@H](NC(=O)c4ccc(C(C)(C)C)s4)C(=O)NC(C(=O)O)C(O)c4ccccc4)cc3)nc2)cc1 (stereo partly drawn) [Compound 935] | 2.5 to 5 µM

Now consider the entry below.
With GLP-1R (Homo sapiens) as the test system, provide measured EC50 for this compound: CCCCCCCOc1ccc(-c2cnc(-c3ccc(C[C@H](NC(=O)c4ccc(C(C)(C)C)s4)C(=O)NC(C(=O)O)[C@H](C)c4ccccc4)cc3)nc2)cc1 (stereo partly drawn) [Compound 896]
5 to 10 µM

* * *

- experimental-target: GLP-1R (Homo sapiens, UniProt P43220)
- Construct: host or cells: GLP-1R CRE-bla CHO-K1 cells
- Sequence (P43220 24-463): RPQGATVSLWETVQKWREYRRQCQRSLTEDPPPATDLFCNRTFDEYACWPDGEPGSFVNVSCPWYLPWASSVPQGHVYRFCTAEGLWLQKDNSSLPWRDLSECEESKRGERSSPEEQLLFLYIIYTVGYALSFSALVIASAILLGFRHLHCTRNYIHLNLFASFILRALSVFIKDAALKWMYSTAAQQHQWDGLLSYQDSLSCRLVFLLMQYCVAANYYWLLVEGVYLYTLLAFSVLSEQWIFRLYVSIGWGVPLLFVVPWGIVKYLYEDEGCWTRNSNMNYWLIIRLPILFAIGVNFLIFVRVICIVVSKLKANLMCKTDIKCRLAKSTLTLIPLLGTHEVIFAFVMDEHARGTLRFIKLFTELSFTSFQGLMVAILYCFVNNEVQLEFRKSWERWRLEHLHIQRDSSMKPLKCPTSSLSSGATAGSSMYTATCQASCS
- Sequence (P01275 100-127 partner limits assumed): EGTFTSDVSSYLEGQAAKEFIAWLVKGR
- assay-details: EC20 GLP-1(9-36) PAM cAMP assay: dose response of compound in the presence of fixed concentration of GLP-1(9-36)
- Type: cell-based
- measurement-setup: dose response of compound in presence of fixed concentration of GLP-1(9-36), GLP-1R CRE-bla CHO-K1 cells, read-out: EC20 GLP-1(9-36) PAM EC50
assay-endpoint: EC50

A selection of reference data follows.
CCCCCCCOc1ccc(-c2cnc(-c3ccc(C[C@H](NC(=O)c4ccc(OCC)cc4)C(=O)N4CC(C(=O)O)C4)cc3)nc2)cc1 [Compound 1114] | 800 to 2500 nM
CCCCCCOc1ccc(-c2cnc(-c3ccc(C[C@H](NC(=O)c4ccc(C(C)(C)C)s4)C(=O)NC(C(=O)O)C(O)c4ccccc4)cc3)nc2)cc1 (some centres unmarked) [Compound 943] | 800 to 2500 nM
CCCCCCCOc1ccc(-c2cnc(-c3ccc(C[C@H](NC(=O)c4ccc(C(C)(C)C)cc4)C(=O)NC(C(=O)O)c4ccco4)cc3)nc2)cc1 (some centres unmarked) [Compound 440] | < 800 nM
CCCCCCCOc1ccc(-c2cnc(-c3ccc(C[C@H](NC(=O)c4ccc(C(C)(C)C)cc4)C(=O)NCC(C(=O)O)C4CCOCC4)cc3)nc2)cc1 (some centres unmarked) [Compound 555] | 2500 to 5000 nM
CC(C)CCOc1ccc(-c2cnc(-c3ccc(C[C@H](NC(=O)c4ccc(C(C)(C)C)cc4)C(=O)NCCC(=O)O)cc3)nc2)cc1 [Compound 456] | 800 to 2500 nM

Could you tell me EC50 for each of these molecules? They are listed below.
1. Cc1ccc(/C=C/c2cnc(-c3ccc(C[C@H](NC(=O)c4ccc(C(C)(C)C)s4)C(=O)N[C@H](C)C(=O)O)cc3)nc2)cc1 [Compound 1052]
2. CCCCCCCOc1ccc(-c2cnc(-c3ccc(C[C@H](NC(=O)c4ccc(C(C)(C)C)s4)C(=O)N[C@@H](Cc4ccccc4)C(=O)O)cc3)nc2)cc1 [Compound 648]
3. CC(C)CCCCOc1ccc(-c2cnc(-c3ccc(C[C@H](NC(=O)c4ccc(C(C)(C)C)cc4)C(=O)NCCC(=O)O)cc3)nc2)cc1 [Compound 472]
4. CCCCCCCOc1ccc(-c2cnc(-c3ccc(C[C@H](NC(=O)c4ccc(C(C)(C)C)s4)C(=O)N[C@@H](C(=O)O)[C@H](C)O)cc3)nc2)cc1 [Compound 664]
5. CCCCCCCOc1ccc(-c2cnc(-c3ccc(C[C@H](NC(=O)c4ccc(C(C)(C)C)s4)C(=O)N4CCC[C@H]4C(=O)O)cc3)nc2)cc1 [Compound 328]
6. CCCCCCCOc1ccc(-c2cnc(-c3ccc(C[C@H](NC(=O)c4ccc(C(C)(C)C)s4)C(=O)NC4CC(N)C4)cc3)nc2)cc1 (some centres unmarked) [Compound 603]

1: 2500 to 5000 nM; 2: 800 to 2500 nM; 3: 800 to 2500 nM; 4: 2500 to 5000 nM; 5: < 800 nM; 6: 800 to 2500 nM

Could you tell me EC50 for each of these molecules? They are listed below.
1. CCC(CC)Oc1ccc(-c2cnc(-c3ccc(C[C@H](NC(=O)c4ccc(C(C)(C)C)cc4)C(=O)NCCC(=O)O)cc3)nc2)cc1 [Compound 696]
2. CCCCCCCOc1ccc(-c2cnc(-c3ccc(C[C@H](NC(=O)c4ccc(C(C)(C)C)s4)C(=O)N4CCC(CC(=O)O)C4)cc3)nc2)cc1 (some centres unmarked) [Compound 613]
3. CCCCCCCOc1ccc(-c2ncc(-c3ccc(C[C@H](NC(=O)c4ccc(C(C)(C)C)cc4)C(=O)O)cc3)nn2)cc1 [Compound 275]

1. 2500 to 5000 nM
2. 800 to 2500 nM
3. 800 to 2500 nM

* * *

- experimental-target: GLP-1R (Homo sapiens)
- Construct: host or cells: GLP-1R CRE-bla CHO-K1 cells
- assay-details: EC20 GLP-1(9-36) PAM cAMP assay: dose response of compound in the presence of fixed concentration of GLP-1(9-36)
- Type: cell-based
- measurement-setup: dose response of compound in presence of fixed concentration of GLP-1(9-36), GLP-1R CRE-bla CHO-K1 cells, read-out: EC20 GLP-1(9-36) PAM EC50
For each of the compounds below, state its EC50.

A selection of reference data follows.
CCCCCCCOc1ccc(-c2cnc(-c3ccc(C[C@H](NC(=O)c4ccc(C(C)(C)C)s4)C(=O)N[C@@H](C(=O)O)C(C)C)cc3)nc2)cc1 | 800 to 2500 nM
CCCCCCCOc1ccc(-c2cnc(-c3ccc(C[C@H](NC(=O)c4ccc(C(C)(C)C)s4)C(=O)N4CCC[C@H]4C(=O)NCC(=O)O)cc3)nc2)cc1 | < 800 nM
CCCCCCCOc1ccc(-c2cnc(-c3ccc(C[C@H](NC(=O)c4ccc(C(C)(C)C)s4)C(=O)NCCCN(C)C)cc3)nc2)cc1 | 800 to 2500 nM
CCCCCCCOc1ccc(-c2cnc(-c3ccc(C[C@H](NC(=O)c4ccc(C(C)(C)C)s4)C(=O)NC(C(=O)O)C(C)c4ccccc4)cc3)nc2)cc1 (stereo partly shown) | < 800 nM
CCCCCCCOc1ccc(-c2cnc(-c3ccc(C[C@H](NC(=O)c4ccc(C(C)(C)C)cc4)C(=O)N[C@H](CO)C(=O)O)cc3)nc2)cc1 | < 800 nM

Could you tell me EC50 for each of these compounds? They are listed below.
1. CCCCCCCOc1ccc(-c2cnc(-c3ccc(C[C@H](NC(=O)c4ccc(C(C)(C)C)s4)C(=O)N4CC[C@H](C(=O)NS(=O)(=O)CC(F)(F)F)C4)cc3)nc2)cc1
2. COc1ccc(-c2ccc(-c3cnc(-c4ccc(C[C@H](NC(=O)c5ccc(C(C)(C)C)s5)C(=O)N[C@H](C)C(=O)O)cc4)nc3)cc2)cc1
3. C[C@@H](NC(=O)[C@H](Cc1ccc(-c2ncc(-c3ccc(OCC(C)(C)C)cc3)cn2)cc1)NC(=O)c1ccc(C(C)(C)C)s1)C(=O)O
4. CCCCCCCOc1ccc(-c2cnc(-c3ccc(C[C@H](NC(=O)Cc4ccc(OCCCC)cc4)C(=O)N4CCC[C@H]4C(=O)O)cc3)nc2)cc1
5. CCCCCCCOc1ccc(-c2cnc(-c3ccc(C[C@H](NC(=O)c4ccc(C(C)(C)C)cc4)C(=O)N[C@@H](CC(=O)O)C(=O)N4CCCCC4)cc3)nc2)cc1
6. CC(C)COc1ccc(-c2cnc(-c3ccc(C[C@H](NC(=O)c4ccc(C(C)(C)C)s4)C(=O)N4CC(C(=O)O)C4)cc3)nc2)cc1

1: < 800 nM; 2: 800 to 2500 nM; 3: < 800 nM; 4: 800 to 2500 nM; 5: 2500 to 5000 nM; 6: 2500 to 5000 nM

Could you tell me EC50 for each of these compounds? They are listed below.
1. CCCCCCCOc1ccc(-c2cnc(-c3ccc(C[C@H](NC(=O)c4cnc(C(C)(C)C)nc4)C(=O)N4CCC[C@H]4C(=O)O)cc3)nc2)cc1
2. C[C@@H](NC(=O)[C@H](Cc1ccc(-c2ncc(-c3ccc(C4=CCC(C)(C)CC4)cc3)cn2)cc1)NC(=O)c1ccc(C(C)(C)C)s1)C(=O)O
3. CCCCCCCOc1ccc(-c2cnc(-c3ccc(C[C@H](NC(=O)c4ccc(OCC)cc4)C(=O)NC(C(=O)O)C(O)c4ccccc4)cc3)nc2)cc1 (stereo partly shown)
4. CCCCCCCOc1ccc(-c2cnc(-c3ccc(C[C@H](NC(=O)c4ccc(C(C)C)cc4)C(=O)N4CC(C(=O)O)C4)cc3)nc2)cc1
5. CC(C)(C)c1ccc(C(=O)N[C@@H](Cc2ccc(-c3ncc(-c4nc(-c5cccc(Cl)c5)no4)cn3)cc2)C(=O)NCCC(=O)O)cc1
6. CCCCCCc1nc(-c2cnc(-c3ccc(C[C@H](NC(=O)c4ccc(C(C)(C)C)cc4)C(=O)O)cc3)nc2)no1
7. CCCCCCCOc1ccc(-c2cnc(-c3ccc(C[C@H](NC(=O)c4ccc(CCCC)cc4)C(=O)N[C@H](C)C(=O)O)cc3)nc2)cc1 [Compound 820]
8. CCCCCCCOc1ccc(-c2cnc(-c3ccc(C[C@H](NC(=O)c4ccc(C(C)(C)C)cc4)C(=O)NC(C(=O)O)c4ccc(OC)cc4)cc3)nc2)cc1 (stereo partly shown)

["2500 to 5000 nM", "< 800 nM", "800 to 2500 nM", "800 to 2500 nM", "2500 to 5000 nM", "2500 to 5000 nM", "2500 to 5000 nM", "< 800 nM"]

Data credit: patent US10034886B2
